Reference source: patent US20030068675

Target Entity: T1, ZFP SBS#629 (synthetic)
T1 chain: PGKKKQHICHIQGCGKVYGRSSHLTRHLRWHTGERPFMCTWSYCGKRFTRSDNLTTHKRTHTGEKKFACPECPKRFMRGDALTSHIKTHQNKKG
Run Description: EMSA
Condition Set: tags: MBP fusion
Readout: Kd (nM)
Field: numeric (nM). Do not append units.

*Q* Name the recorded Kd for TTGTAGGGGA (dsDNA) DNA 1: TTGTAGGGGA DNA 2: TCCCCTACAA .
*A* 150
